Here the recorded pIC50 is given for each entry.
# system name: human Smoothened receptor (Homo sapiens, UniProt Q99835)
# Sequence (Q99835 28-787): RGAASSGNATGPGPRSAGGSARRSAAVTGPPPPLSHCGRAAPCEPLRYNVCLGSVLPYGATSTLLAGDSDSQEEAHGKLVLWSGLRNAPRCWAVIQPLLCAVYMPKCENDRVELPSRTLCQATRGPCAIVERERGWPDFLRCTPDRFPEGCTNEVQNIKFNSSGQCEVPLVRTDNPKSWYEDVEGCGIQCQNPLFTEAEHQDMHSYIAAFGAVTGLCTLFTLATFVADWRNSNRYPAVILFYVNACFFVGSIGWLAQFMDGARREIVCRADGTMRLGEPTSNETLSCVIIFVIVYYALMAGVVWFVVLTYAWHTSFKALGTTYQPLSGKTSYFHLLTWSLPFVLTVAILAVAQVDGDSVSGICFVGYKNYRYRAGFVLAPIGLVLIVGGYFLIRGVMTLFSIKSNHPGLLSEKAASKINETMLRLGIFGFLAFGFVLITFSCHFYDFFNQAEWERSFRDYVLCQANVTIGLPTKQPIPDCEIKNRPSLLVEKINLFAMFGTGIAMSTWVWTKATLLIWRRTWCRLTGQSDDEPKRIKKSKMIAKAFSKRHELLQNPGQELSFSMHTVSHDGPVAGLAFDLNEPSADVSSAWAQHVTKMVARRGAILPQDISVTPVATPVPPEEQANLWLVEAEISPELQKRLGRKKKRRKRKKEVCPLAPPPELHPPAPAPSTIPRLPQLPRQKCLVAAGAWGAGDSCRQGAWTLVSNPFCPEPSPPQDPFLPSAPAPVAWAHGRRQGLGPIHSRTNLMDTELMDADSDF
pIC50: −log10 of the molar value.
reported property: pIC50

[[record]]
compound = "CN(CCO)C(=O)c1ccc(N2CCN(c3nnc(Cc4ccccc4Cl)c4ccccc34)CC2)nc1 [Example 200]"
system_name = "human Smoothened receptor (Homo sapiens, UniProt Q99835)"
result = "> 7.00"

[[record]]
compound = "FC1(F)CN(Cc2ccc(N3CCN(c4nnc(Cc5ccccc5)c5ccccc45)CC3)nc2)C1 [Example 229]"
system_name = "human Smoothened receptor (Homo sapiens, UniProt Q99835)"
result = "> 7.00"

[[record]]
compound = "N#Cc1cnc(N2CCN(c3nnc(Cc4ccccc4)c4ccccc34)CC2)nc1 [Example 39]"
system_name = "human Smoothened receptor (Homo sapiens, UniProt Q99835)"
result = "6.00 to 7.00"

[[record]]
compound = "Fc1ccc(Cn2cc(C3CCN(c4ccc(C(F)(F)F)cn4)CC3)c3ccccc32)cc1 [Example 95]"
system_name = "human Smoothened receptor (Homo sapiens, UniProt Q99835)"
result = "6.00 to 7.00"

[[record]]
compound = "Cc1cc(C)nc(N2CCN(c3nnc(Cc4ccccc4)c4ccccc34)CC2)n1 [Example 48]"
system_name = "human Smoothened receptor (Homo sapiens, UniProt Q99835)"
result = "6.00 to 7.00"

[[record]]
compound = "O=C(c1ccc(C(F)(F)F)cc1)N1CCC(c2cn(Cc3ccc(F)cc3)c3ccccc23)CC1 [Example 104]"
system_name = "human Smoothened receptor (Homo sapiens, UniProt Q99835)"
result = "5.00 to 6.00"

[[record]]
compound = "O=S(=O)(c1ccc(N2CCN(c3nnc(Cc4ccccc4)c4ccccc34)CC2)nc1)N1CCCC1 [Example 133]"
system_name = "human Smoothened receptor (Homo sapiens, UniProt Q99835)"
result = "6.00 to 7.00"

[[record]]
compound = "O=C(c1ccc(N2CCN(c3nnc(Cc4ccccc4)c4ccccc34)CC2)nc1)N1CC(O)C1 [Example 54z]"
system_name = "human Smoothened receptor (Homo sapiens, UniProt Q99835)"
result = "6.00 to 7.00"

[[record]]
compound = "O=C(c1ccc(N2CCN(c3nnc(Cc4ccccc4)c4ccccc34)CC2)nc1)N1CCOCC1 [Example 54k]"
system_name = "human Smoothened receptor (Homo sapiens, UniProt Q99835)"
result = "6.00 to 7.00"

[[record]]
compound = "O=C(NC1CN(C(=O)OCc2ccccc2)C1)c1ccc(N2CCN(c3nnc(Cc4ccccc4)c4ccccc34)CC2)nc1 [Example 54x]"
system_name = "human Smoothened receptor (Homo sapiens, UniProt Q99835)"
result = "> 7.00"

[[record]]
compound = "OC1(c2ccc(N3CCN(c4nnc(Cc5ccccc5)c5ccccc45)CC3)nc2)CC1 [Example 135]"
system_name = "human Smoothened receptor (Homo sapiens, UniProt Q99835)"
result = "> 7.00"

[[record]]
compound = "N#Cc1ccc(N2CCN(c3nnc(CCc4ccccc4)c4ccccc34)CC2)nc1 [Example 61]"
system_name = "human Smoothened receptor (Homo sapiens, UniProt Q99835)"
result = "6.00 to 7.00"

[[record]]
compound = "N#Cc1ccc(N2CCN(c3nnc(Cc4cccc(C#N)c4)c4ccccc34)CC2)nc1 [Example 65]"
system_name = "human Smoothened receptor (Homo sapiens, UniProt Q99835)"
result = "6.00 to 7.00"

[[record]]
compound = "CC(C)(O)c1ccc(N2CCN(c3nnc(Cc4ccccc4)c4ccccc34)CC2)nc1 [Example 54a]"
system_name = "human Smoothened receptor (Homo sapiens, UniProt Q99835)"
result = "> 7.00"

[[record]]
compound = "CC(O)(CO)c1cnc(N2CCN(c3nnc(Cc4ccccc4)c4ccccc34)CC2)cn1 (centres unmarked) [Example 166]"
system_name = "human Smoothened receptor (Homo sapiens, UniProt Q99835)"
result = "> 7.00"

[[record]]
compound = "CCOC(=O)c1ccc(N2CCN(c3nnc(CN4CCOCC4)c4ccccc34)CC2)nc1 [Example 203]"
system_name = "human Smoothened receptor (Homo sapiens, UniProt Q99835)"
result = "6.00 to 7.00"

[[record]]
compound = "C[C@H]1CN(c2ccc(C#N)cn2)CCN1c1nnc(Cc2ccccc2)c2ccccc12 [Example 117]"
system_name = "human Smoothened receptor (Homo sapiens, UniProt Q99835)"
result = "> 7.00"

[[record]]
compound = "C[C@@H]1CN(c2ccc(C#N)cn2)CCN1c1nnc(Cc2ccccc2)c2ccccc12 [Example 118]"
system_name = "human Smoothened receptor (Homo sapiens, UniProt Q99835)"
result = "6.00 to 7.00"

[[record]]
compound = "CN(C)Cc1ccc(N2CCN(c3nnc(Cc4ccccc4)c4ccccc34)CC2)nc1 [Example 217]"
system_name = "human Smoothened receptor (Homo sapiens, UniProt Q99835)"
result = "5.00 to 6.00"

[[record]]
compound = "CN(CCO)C(=O)c1ccc(N2CCN(c3nnc(Cc4ccc(Cl)c(Cl)c4)c4ccccc34)CC2)nc1 [Example 201]"
system_name = "human Smoothened receptor (Homo sapiens, UniProt Q99835)"
result = "> 7.00"

[[record]]
compound = "C[C@H]1CN(c2ccc(C(C)(C)O)cn2)CCN1c1nnc(Cc2ccccc2Cl)c2ccccc12 [Example 196]"
system_name = "human Smoothened receptor (Homo sapiens, UniProt Q99835)"
result = "> 7.00"

[[record]]
compound = "Cc1cc(Cc2ccccc2)nnc1N1CCN(c2ccc(C(F)(F)F)cn2)CC1 [Example 88]"
system_name = "human Smoothened receptor (Homo sapiens, UniProt Q99835)"
result = "6.00 to 7.00"

[[record]]
compound = "O=C(c1cnc(N2CCN(c3nnc(Cc4ccccc4)c4ccccc34)CC2)nc1)N1CCOCC1 [Example 54bb]"
system_name = "human Smoothened receptor (Homo sapiens, UniProt Q99835)"
result = "6.00 to 7.00"

[[record]]
compound = "FC(F)(F)c1ccc(N2CCC(c3cn(Cc4ccccc4)c4ccccc34)CC2)nc1 [Example 97]"
system_name = "human Smoothened receptor (Homo sapiens, UniProt Q99835)"
result = "6.00 to 7.00"

[[record]]
compound = "COC(=O)CNC(=O)c1ccc(N2CCN(c3nnc(Cc4ccccc4)c4ccccc34)CC2)nc1 [Example 54r]"
system_name = "human Smoothened receptor (Homo sapiens, UniProt Q99835)"
result = "6.00 to 7.00"

[[record]]
compound = "CC(C)C(O)c1ccc(N2CCN(c3nnc(Cc4ccccc4)c4ccccc34)CC2)nc1 (centres unmarked) [Example 220]"
system_name = "human Smoothened receptor (Homo sapiens, UniProt Q99835)"
result = "> 7.00"

[[record]]
compound = "OC1(c2ccc(N3CCN(c4nnc(Cc5ccccc5)c5ccccc45)CC3)nc2)COC1 [Example 111]"
system_name = "human Smoothened receptor (Homo sapiens, UniProt Q99835)"
result = "6.00 to 7.00"

[[record]]
compound = "N#Cc1ccc(N2CCC(c3cn(Cc4ccc(F)cc4)c4ccccc34)CC2)nc1 [Example 98]"
system_name = "human Smoothened receptor (Homo sapiens, UniProt Q99835)"
result = "5.00 to 6.00"

[[record]]
compound = "N#Cc1ccc(N2CCN(c3nnc(Cc4ccc(F)cc4)c4c3CCCC4)CC2)nc1 [Example 93b]"
system_name = "human Smoothened receptor (Homo sapiens, UniProt Q99835)"
result = "6.00 to 7.00"

[[record]]
compound = "C[C@@H]1CN(c2nnc(Cc3ccccc3)c3ccccc23)CCN1c1ccc(C#N)cn1 [Example 142]"
system_name = "human Smoothened receptor (Homo sapiens, UniProt Q99835)"
result = "> 7.00"

[[record]]
compound = "CC(O)(CO)c1ccc(N2CCN(c3nnc(Cc4ccccc4)c4ccccc34)CC2)nc1 (centres unmarked) [Example 167]"
system_name = "human Smoothened receptor (Homo sapiens, UniProt Q99835)"
result = "> 7.00"

[[record]]
compound = "CC(O)CC(=O)NCc1ccc(N2CCN(c3nnc(Cc4ccccc4)c4ccccc34)CC2)nc1 (centres unmarked) [Example 213]"
system_name = "human Smoothened receptor (Homo sapiens, UniProt Q99835)"
result = "6.00 to 7.00"

